Assay: yeast display, Sf9 membrane polyspecificity reagent, FACS + sequencing; frameworks hold sequencing errors
MEASUREMENT_LABEL: polyreactivity (PSR sort gate)

Below are worked cases with known answers.
- QVQLVESGGGLVQAGGSLRLSCAATGRIFTINAMGWYRQAPGKERELVAGITKSGGITYYADSVKGRFTISRDNAKNTVYLQMNSLKPEDTAVYYCAAPFNRWRARTGFDYWGQGTQVTVSS: high polyreactivity
- QGQLVESGGGLDQAGVSLRLSCAASGFIFSFDNAMGWYRQAPGTERELVAAISSGTTTHYADSVKGRFTISRDNAKNTVYLQMNSLKPEDSAVYDCAADSVKQVRYGNVGHDDWGQGTQVTVSS: low polyreactivity
- QVHLVESGGGLVQAGGSLRLSCAASGRIFYYYAMGWYRQAPGKERELVAGITITDASTYYADSVKGRFTISRDYAKNTVYLQMNSLKPEYTAVYYCNAVRYWEGRRYYYWGQGTQVTVSS: high polyreactivity
- QDQLVESGGGLVQAGGSLRLSCAASGGIFYQYAMGWYRQAPGKERELVATITSGGRTSYADSVKGRFTISRDNAKNTFYLQMNSLNPEDTAVYYCAATTGWYGARYGYWGQGTQVTVSS: high polyreactivity

Retrieve polyreactivity (PSR sort gate) measured for QVQLVESGGGLVQAGGSLRLSCAASGRIFINDMGWYRQAPGKERELVAAIRSDGSTNYADSVKGRFTISRDNAKNTVYLQMNSLKPEDTAVYYCNVDGYFLFVRGYEYWGQGTQVTVSS and print it. low polyreactivity
